F1F0-ATPase (Bos taurus, UniProt P13621) measurements of pIC50, listed per entry.
pIC50: −log10 of the molar value.

Reference set (5 entries):
compound="CC(C)CN/C(=N/C(=O)c1ccc(F)c(F)c1)Nc1n[nH]c2ccc(Br)cc12 [Compound A-67]" result="> 5.30"
compound="CCOCCCNC(=NC(=O)c1ccc(F)c(F)c1)Nc1n[nH]c2cc(C(F)(F)F)ccc12 [Compound A-11]" result="> 5.30"
compound="COC[C@H](C)N/C(=N/C(=O)c1ccc(Cl)cc1)Nc1nn(C)c2cc(C(F)(F)F)ccc12 [Compound A-115]" result="< 4.80"
compound="CCOCCNC(=NC(=O)c1ccc(F)c(F)c1)Nc1n[nH]c2ccc(C(F)(F)F)cc12 [Compound A-54]" result="> 5.30"
compound="CC(C)CNC(=NC(=O)c1ccc(F)c(F)c1)Nc1n[nH]c2cc(Cl)c(F)cc12 [Compound A-101]" result="> 5.30"

Let me check: COC[C@H](C)N/C(=N/C(=O)c1ccc(F)c(F)c1)Nc1n[nH]c2c(F)cccc12 [Compound A-74] , system F1F0-ATPase (Bos taurus, UniProt P13621), measured pIC50 is 4.80 to 5.30

Let me check: CC(C)(O)CN/C(=N/C(=O)c1ccc(O)cc1)Nc1n[nH]c2cc(F)ccc12 [Compound A-90] , system F1F0-ATPase (Bos taurus, UniProt P13621), measured pIC50 is < 4.80

Let me check: O=C(/N=C(\Nc1n[nH]c2cc(C(F)(F)F)ccc12)NC1CCOCC1)c1ccc(Cl)c(F)c1 [Compound A-21] , system F1F0-ATPase (Bos taurus, UniProt P13621), measured pIC50 is > 5.30

Let me check: CC(C)CN/C(=N/C(=O)c1ccc(Cl)c(F)c1)Nc1n[nH]c2cc(C(F)(F)F)ccc12 [Compound A-14] , system F1F0-ATPase (Bos taurus, UniProt P13621), measured pIC50 is > 5.30

Let me check: CC(C)CNC(=NC(=O)c1ccc(O)cc1)Nc1n[nH]c2cc(Cl)ccc12 [Compound A-108] , system F1F0-ATPase (Bos taurus, UniProt P13621), measured pIC50 is > 5.30

Let me check: CC(C)(O)CN/C(=N/C(=O)c1cccc(O)c1)Nc1n[nH]c2cc(F)ccc12 [Compound A-94] , system F1F0-ATPase (Bos taurus, UniProt P13621), measured pIC50 is < 4.80

Let me check: O=C(/N=C(/Nc1cc(F)cc(Cl)c1)Nc1n[nH]c2ccccc12)c1ccc(Cl)cc1 [Compound A-111] , system F1F0-ATPase (Bos taurus, UniProt P13621), measured pIC50 is > 5.30
